molecular target: PAS domain-containing serine/threonine-protein kinase (Homo sapiens); conditions: at 1 µM;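 note: reported value is the mean percent inhibition of PASK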
Below, each entry is listed alongside its reported inhibition.
measurement.name: inhibition (%)

1. NCc1ccc(-c2nc(-c3ccc(Cl)c(O)c3)c(-c3ccncc3)[nH]2)cc1 :: -0.1
2. Cc1ccc(C(=O)NC2CCCCC2)cc1-c1ccc(C(=O)NCC2CC2)cc1 :: -0.83
3. Fc1cccc(COc2ccc(Nc3ncnc4sc(-c5cccs5)cc34)cc2Cl)c1 :: -0.11
4. Cc1cc(O)cc(C)c1/C=C/c1cncc(-c2nn[nH]n2)c1 :: -1.14
5. Cn1cc(C=C2C(=O)Nc3cccnc32)c2ccccc21 :: -2.27
6. O=C1NC(=O)C(N2CCc3ccccc32)=C1c1ccc(Cl)cc1 :: -1.5
7. CN(C)c1cc2c(Nc3ccc4nc(Cc5ccccc5)[nH]c4c3)ncnc2cn1 :: -2.17
8. [O-][S+]1CCN(Cc2ccc(-c3ccc4ncnc(Nc5ccc(OCc6ccccc6)c(F)c5)c4c3)o2)CC1 :: -1.35
9. CC1=C(C(=O)Nc2ccc3[nH]ncc3c2)C(c2ccc3ccccc3c2)CC(=O)N1 (configuration not stated) :: -1.53
10. COc1cc2c(cc1Nc1nc(N3CCc4ccccc43)c3cc[nH]c3n1)N(C(=O)CN(C)C)CC2 :: -0.16
11. COc1cccc(-n2ncc3c(N/N=C/c4cccc(F)c4)ncnc32)c1 :: -1.6
12. O=C(Nc1n[nH]c2nc(-c3ccco3)c(Br)cc12)C1CC1 :: -1.87
13. O=C1NC(=O)C(c2ccccc2Cl)=C1Nc1cccc(O)c1 :: -0.94
14. CCn1c(-c2nonc2N)nc2cncc(C(=O)N3CC[C@H](N)C3)c21 :: 22.9
15. COC(=O)Nc1nc2cc(Oc3cccc(NC(=O)Nc4cc(C(F)(F)F)ccc4F)c3)ccc2[nH]1 :: 0.57
16. Nc1ncnc2occ(-c3ccc(NC(=O)Nc4cccc(C(F)(F)F)c4)cc3)c12 :: 0.31
17. CCN1CCC(CC(=O)Nc2n[nH]c3nc(-c4cccs4)c(Br)cc23)CC1 :: -1.17
18. COc1ccc(-c2ccncc2)cc1C(N)=O :: -0.33
19. CC(C)=Cc1cccc2c1/C(=N/Nc1ccc(S(N)(=O)=O)cc1)C(=O)N2 :: 1.77
20. COc1cc2ncn(-c3cc(O[C@H](C)c4ccccc4Cl)c(C(N)=O)s3)c2cc1OC :: 5.27
21. Cc1nn(C)c2cc(N(C)c3ccnc(Nc4cccc(S(N)(=O)=O)c4)n3)ccc12 :: -0.33
22. COc1ccccc1Nc1ncc(-c2ccccc2)o1 :: 1.05
